# Test system: NCI-H23 lung
# method: NCI-60 one-dose screen, 48 h
# setup conditions: 10 µM unless noted
About 83,000 compounds went through this panel and 20% of them were active in at least one assay; those are over-represented in the sample as a whole. Activity calls are given as the source filed them. The calls were made as follows: active = growth percent below 10; inactive = the rest.
Valid outcomes are listed here; reply with one: class 1 (active), class 0 (inactive)

Record lookup: outcome of this test for CC(=O)Nc1ccc(NC(=O)Nc2cccc(-c3nc(-c4ccc(NC(=O)c5cccs5)cc4Cl)no3)c2)cc1C(F)(F)F ?
class 1

Follow-up item: COCCOc1ccc(-c2csc(NC(=O)CN3CCN(CCO)CC3)n2)cc1NS(=O)(=O)c1cccc2c(N(C)C)cccc12
class 0

Entry COc1ccc2c(C3=C(c4c[nH]c5ccccc45)C(=O)N(O)C3=O)coc2c1 please
class 0

Can you check CNC(=O)c1c(NC(=O)c2ccc(F)cc2F)sc2c1CCC(=O)C2 next?
class 1

Now try O=C(Nc1cc(Cl)cc(Cl)c1)Nc1nc2ccc([N+](=O)[O-])cc2s1 .
class 1

COc1cc(/C=N/n2cnc3oc(-c4ccccc4)cc3c2=N)cc(CN2CCCC2)c1O ?
class 0

How about O=C1[C@H]2Cc3c([nH]c4ccccc34)[C@@H](c3c(Cl)cccc3Cl)N2C(=O)CN1C1CCN(Cc2ccccc2)CC1 ?
class 0

Also check CCCCCCNC(=O)Oc1ccc(/C(=C(/C)c2ccc(Cl)cc2)c2ccc(OCCN3CCCC3)cc2)cc1
class 0

What about this compound? N#C/C(=C\c1ccc2ccccc2c1)C(=O)Nc1sc2c(c1C#N)CCC2
class 0

* * *

# Tested on: T-47D breast
# method: NCI-60 one-dose screen, 48 h
# setup conditions: 10 µM unless noted
This is part of a sample that, as a whole, favours compounds with a hit. Of some 83,000 tested, about 20% had one in any assay. Active and inactive are the calls of the source. The calls were made as follows: active = growth percent below 10; inactive = the rest.
Result category, one only: TRUE for active, FALSE for inactive

I would be grateful if you could indicate the recorded call for O=C(NCCNc1cc(-c2cn(-c3ccccc3)nc2-c2cccc(O)c2)ccn1)Nc1ccc(Cl)c(C(F)(F)F)c1 .
FALSE

Same lookup for Cc1nn(-c2ccc(Cl)cc2)c(C)c1N=Nc1ccc2oc(=O)ccc2c1 , please.
FALSE

Check COc1cc([C@H]2OC[C@H]3[C@@H]2CO[C@@H]3c2ccc(O)c(OC)c2)ccc1O too.
FALSE

Next: COc1cnc2c(c1)C(=O)c1c-2n(CCCn2ccnc2)c(=O)c2cc(OC)c(OC)cc12
TRUE

Same for CC(C)=CCC[C@](C)(O)[C@H]1CC[C@]2(C)[C@@H]1CC[C@@H]1[C@@]3(C)CCC(NC(=O)c4ccccc4C(=O)O)C(C)(C)[C@@H]3CC[C@]12C (some centres not stated)
FALSE

Try this molecule too: CCOC(=O)c1c(NC(=O)c2ccc(C(C)(C)C)cc2)sc2cc(OCCN3CCCCC3)ccc12
FALSE

Follow-up entry: COc1ccc(Oc2ccc(C3CC(c4cc(OC)c(OC)c(OC)c4)=NN3C(C)=O)cc2)cc1 (configuration not stated)
TRUE

What do you get for O=C(CCCCCCN1CC(=O)N2[C@@H](c3ccc(Cl)c(F)c3)c3[nH]c4ccccc4c3C[C@H]2C1=O)NO ?
FALSE

Thanks! And CC1COc2c(N3CCN(C)CC3)c(F)cc3c(=O)c(C(=O)N/N=C/c4cc[nH]c4)cn1c23 (configuration not stated) ?
FALSE

What would you report for O=C(Nc1cccc(Cl)c1)Nc1nc2ccc(-c3cccc4ccccc34)cc2s1 ?
FALSE

Also CCN1C(=O)N(CC)C2SC(N/N=C/c3ccc(OC)cc3)=NC21 (configuration not stated) ?
FALSE

Next record, please: COc1cc(C(=O)C[n+]2ccc3ccccc3c2)cc(OC)c1OC
FALSE

Item: O=C(Nc1cccc(-c2nc(-c3ccc(NC(=O)c4cccs4)cc3Cl)no2)c1)Nc1ccc(NC(=O)C2CC2)c(C(F)(F)F)c1
TRUE

What do we get for O=C(N/N=C\c1ccc(Cl)cc1)c1ccc2nc(-c3ccc(Br)cc3)[nH]c2c1 ?
TRUE

Now the molecule Fc1ccc(-c2cc3nc(C(Cl)Cl)nc(-c4cccs4)n3n2)cc1
FALSE

Same read-out for N#C/C(=C\c1ccc(N2CCCCC2)cc1)C(=O)Nc1sc2c(c1C#N)CCC2 ?
FALSE

Another: CSc1nccc(-c2c(-c3ccc(F)c(OCc4ccc(F)cc4)c3)nc3sccn23)n1
FALSE

Can you check COc1cc2c3c(n(CCCNC4CCCCC4)c(=O)c2cc1OC)-c1cc2c(cc1C3=O)OCO2 next?
FALSE

Follow-up item: IP(CCCSc1n(Cc2ccc3ccccc3c2)c(-c2ccccc2)c(-c2ccccc2)[n+]1Cc1ccc2ccccc2c1)(c1ccccc1)(c1ccccc1)c1ccccc1
TRUE

What would you report for CCN(CC)CCCC(C)NCC(=O)NC(c1ccc2c(c1)OCO2)c1cc(Cl)c2cccnc2c1O (configuration not stated) ?
FALSE

Now consider CCCCCCNC(=O)Oc1ccc(/C(=C(\C)c2ccc(Cl)cc2)c2ccc(OCCN(C)C)cc2)cc1 .
FALSE

What do we get for COc1ccc(OC)c(NC2=C(Cl)C(=O)C(C)=C(C)C2=O)c1 ?
TRUE

Would you mind doing CS(=O)(=O)c1nccc(-c2c(-c3ccc(F)c(OCCc4ccc(F)cc4)c3)nc3sccn23)n1 as well?
TRUE

Next up: O=C(/C=C/c1cccc(O)c1)c1ccc(O)cc1
FALSE

Quick one: O=C1Nc2ccc(Br)cc2/C1=N\c1nnc(-c2ccc(Cl)cc2)o1
FALSE

Same read-out for N/C(=N\c1nc2ccc([N+](=O)[O-])cc2s1)C(Cl)(Cl)Cl ?
FALSE

Also C(=C(\C1=NCCN1)n1cnc2ccccc21)/c1ccc2ccccc2c1 , if possible.
FALSE

And what about the molecule COc1ccc(Cn2cc3c(c2-c2ccccc2)CCCc2cnoc2-3)cc1[N+](=O)[O-] ?
FALSE

Consider next the molecule C=CCn1c(SCC(=O)Nc2cccc(C(=O)/C=C/c3ccc(Br)cc3)c2)nc2ccccc2c1=O in the same way.
FALSE

Would you kindly repeat that for Oc1ccc(CSc2nnc(-c3ccc(Oc4ccccc4)cc3)n2-c2ccccc2)c2cccnc12 ?
TRUE

Now try Oc1ccc(-c2nnc(SCc3ccc(O)c4ncccc34)n2-c2ccccc2)cc1 .
FALSE

Another molecule to look at: CCOC(=O)/C=c1\sc2n(c1=O)C1C(NN=2)N(CC)C(=O)N1CC (configuration not stated)
FALSE

Same again, this time with COc1cc2oc(-c3cccc(NC(=O)c4cc(NC(=O)[C@H](C)NC(=O)OC(C)(C)C)ccc4C)c3)cc(=O)c2c(OC)c1OC
FALSE

Quick one: CC(C)=CCc1c2c(c(O)c3c1O[C@]14C(=C[C@@H]5C[C@H]1C(C)(C)O[C@@]4(C/C=C(/C)C(=O)O)C5=O)C3=O)CC(O)C(C)(C)O2 (some centres not stated)
TRUE

Follow-up item: COc1cc(CNC(=O)Cc2ccccc2[N+](=O)[O-])ccc1OCC(=O)NO
FALSE

Now this one: Fc1ccccc1/C=C(/C1=NCCN1)n1cnc2ccccc21
FALSE

Then this molecule: CN1C(=O)N(C)C2C1NN=c1s/c(=C\c3ccccn3)c(=O)n12 (configuration not stated)
FALSE

* * *

Please provide measured growth for the entries that follow.
# System: PC-3 prostate
# method: NCI-60 one-dose screen, 48 h (100 = growth as untreated, 0 = no growth, -100 = all killed)
# setup conditions: 10 µM unless noted
The panel holds about 83,000 compounds, 20% with a hit somewhere; the sample as a whole holds those more often.
Report only the number, with the unit % understood.

Please give the measured growth for this compound: CC(=O)c1ccc(NC(=O)COc2ccc(C3SCC(=O)N3c3ccc(Br)cc3)cc2)cc1 (centres undefined)
91.6

For O=C(O)c1ccc(-n2cc(CNc3ccc(F)cc3)c(-c3ccc(C(F)(F)F)cc3)n2)cc1 then?
79.4

Please answer likewise for CCNC(=O)Oc1ccc(/C(=C(/C)c2ccc(Cl)cc2)c2ccc(OCCN3CCCC3)cc2)cc1
82.4

Ok, now Oc1ccc(CSc2nnc(-c3ccc(Cl)cc3)o2)c2cccnc12
21.4

Entry to check: NC(=O)c1c(NC(=O)c2cccc(OC(F)(F)F)c2)sc2c1CCC(=O)C2
21.3

Quick one: O=C(CCCCCCN1CC(=O)N2[C@@H](c3cccc(Cl)c3)c3[nH]c4ccccc4c3C[C@H]2C1=O)NO
42.6

What about O=c1cc(-c2ccccc2)nc2sc(-c3c[nH]c4ccc(F)cc34)nn12 ?
64.9

What do you have for C/C(=C(/C)C1CC1CCN(C(=O)c1ccccn1)S(=O)(=O)c1ccc(C)cc1)C1CCCCC1 (centres undefined) ?
93.4

Then CCOC(=O)c1c(NCC(=O)Nc2cccc(Cl)c2)sc2c1CCCC2 ?
73.6

* * *

# Test system: EKVX NSCLC
# method: NCI-60 one-dose screen, 48 h
# setup conditions: 10 µM unless noted
The panel holds about 83,000 compounds, 20% with a hit somewhere; the sample as a whole holds those more often. Activity calls are given as the source filed them. Rule for the calls: active = growth percent below 10; inactive = the rest.
Classes to choose from: 1.0 (active), 0.0 (inactive)

// param item: Nc1nc(N)c2c(n1)NC(c1ccc(Cl)cc1)CC(c1ccc(Nc3nc(NCCO)nc(Nc4ccc(Cl)cc4)n3)cc1)=N2 (centres undefined) ; yields the recorded call
0.0

Try the molecule O=C(Cn1cc(CN2C(=O)c3ccc([N+](=O)[O-])cc3C2=O)nn1)Nc1ccccc1Br
0.0

Follow-up entry: Oc1ccc(CSc2nnc(-c3ccncc3)o2)c2cccnc12
0.0

# repeat for CN(c1ccc(F)cc1)S(=O)(=O)c1ccc(-c2cnc(C3CC3)o2)cc1
0.0

Also, CCCC(=O)NC(c1cccnc1)c1cc(C(C)=O)c2cccnc2c1O (centres undefined) please.
0.0

Same again, this time with Nc1ccc(-c2nnc(SCc3ccc(O)c4ncccc34)o2)cc1
1.0

Now this one: COc1ccccc1/C=C/C=N/NC1=NC2C(S1)N(C)C(=O)N2c1ccccc1 (centres undefined)
0.0

Param item: NC(N)=NS(=O)(=O)c1ccc(N=NC2C(=O)NN(c3ccccc3)C2=O)cc1 (centres undefined)
0.0

And for O=C(NNc1nc2cc(F)cc(F)c2n2cccc12)c1ncccn1 ?
0.0

Further, for Cc1ccc(NC(=O)c2ccc(CN3CCN(C)CC3)c(I)c2)cc1Oc1ccc(-c2[nH]nc3ncnc(N)c23)cc1 ?
0.0

// next record Cn1c2ccc(Br)cc2c2c3c(c4c5cc(F)ccc5oc4c21)C(=O)N(O)C3=O
0.0

Also CCNCCCn1c2c(c3cc(OC)c(OC)cc3c1=O)C(=O)c1cc(OC)cnc1-2 , if possible.
0.0

Again, but for O=C(NCCCCCCNC(=O)c1c2c(nc3ccccc13)-c1cccnc1SC2)c1c2c(nc3ccccc13)-c1cccnc1SC2
0.0

Same question for C#CCOc1ccc(/C=N/Nc2nc(-c3cc4cc(Br)cc(Br)c4oc3=O)cs2)cc1 please.
0.0

Would you mind doing O=C(NCCCNc1cc(-c2cn(-c3ccccc3)nc2-c2cccc(O)c2)ccn1)Nc1cccc(C(F)(F)F)c1 as well?
0.0

Queued: Oc1ccc(-c2nnc(SCc3ccc(O)c4ncccc34)n2-c2ccccc2)cc1
1.0

Next: COc1ccc(-c2cc(-c3cccc4ccccc34)n3c(n2)nc2ccccc23)cc1OC
0.0

# repeat for COc1ccc(N)cc1C(=O)Nc1cccc(-c2cc(=O)c3c(OC)c(OC)c(OC)cc3o2)c1
0.0

Next up: C#C[C@]1(O)CC[C@H]2[C@@H]3CC=C4c5sc(-c6ccccn6)nc5CC[C@]4(C)[C@H]3CC[C@@]21C
0.0
